Endpoint: HepSE_jaundice. System: Hepatotoxicity. Items follow.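 Also: Jaundice-related hepatic side-effect score drawn from the training data of the DILIps (drug-induced liver injury prediction system).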 Also: call rule not given here.

{"columns": ["molecule", "tested on", "HepSE_jaundice"],
 "data": [
  ["CCCN1C[C@H](CSC)C[C@@H]2c3cccc4[nH]cc(c34)C[C@H]21 [PERGOLIDE]", "Hepatotoxicity", 1],
  ["CN1C(CCl)Nc2cc(Cl)c(S(N)(=O)=O)cc2S1(=O)=O (stereo not drawn) [METHYCLOTHIAZIDE]", "Hepatotoxicity", 1],
  ["C=CCN1C[C@H](C(=O)N(CCCN(C)C)C(=O)NCC)C[C@@H]2c3cccc4[nH]cc(c34)C[C@H]21", "Hepatotoxicity", 0],
  ["C[N+](C)(C)CC(=O)O", "Hepatotoxicity", 0],
  ["NS(=O)(=O)c1cc2c(cc1Cl)NCNS2(=O)=O [HYDROCHLOROTHIAZIDE]", "Hepatotoxicity", 1],
  ["COc1cc2nc(N(C)CCCNC(=O)C3CCCO3)nc(N)c2cc1OC (stereo not drawn)", "Hepatotoxicity", 1],
  ["CCC(=O)O[C@@H](O[P@](=O)(CCCCc1ccccc1)CC(=O)N1C[C@H](C2CCCCC2)C[C@H]1C(=O)O)C(C)C", "Hepatotoxicity", 1],
  ["CC(CN(C)C)CN1c2ccccc2CCc2ccccc21 (stereo not drawn)", "Hepatotoxicity", 1],
  ["O=C(c1ccccc1)c1ccc2n1CCC2C(=O)O (stereo not drawn)", "Hepatotoxicity", 1],
  ["Cc1cnc(NC(=O)C2=C(O)c3ccccc3S(=O)(=O)N2C)s1", "Hepatotoxicity", 1],
  ["OC(c1cc(C(F)(F)F)nc2c(C(F)(F)F)cccc12)C1CCCCN1 (stereo not drawn)", "Hepatotoxicity", 0],
  ["NCCCCCC(=O)O", "Hepatotoxicity", 0],
  ["Nc1nc(F)nc2c1ncn2[C@@H]1O[C@H](CO)[C@@H](O)[C@@H]1O", "Hepatotoxicity", 0]
]}
